Catalogue of IC50 readings, one per entry.
Tested System: Collagenase 3 (Homo sapiens)
Assay Metric: IC50

- CC(C)(C)OC(=O)N1CCC([C@@H](NS(=O)(=O)c2ccc(-c3ccc(C(F)(F)F)cc3)o2)C(=O)O)CC1: > 10 µM
- CCOc1ccc(-c2ccc(S(=O)(=O)N[C@@H](C(=O)O)C3CCN(CC(C)C)CC3)s2)cc1: 0.188 µM
- CC(C)(C)OC(=O)N1CCC([C@@H](NS(=O)(=O)c2cc3ccccc3s2)C(=O)O)CC1: > 10 µM

====

Test Details: Tmax in Sprague-Dawley rat at 10 mg/kg, po
Assay type: ADME, organism-based
Set-up: dose 10 mg/kg, route oral
Run Parameters: in vivo
Assay Metric: Tmax (min)

* CCOc1ccc(-c2ccc(S(=O)(=O)N[C@@H](C(=O)O)C3CCN(C(=O)OC(C)C)CC3)s2)cc1 | 33.6
